Test system: RIVA
procedure-text: growth inhibition by drug alone (1 - RLU/untreated control) (fraction); higher = stronger inhibition
conditions: 100 nM; time (day): 5; 177Lu-lilotomab satetraxetan 0 ug/ml
parameter-measured: growth inhibition by drug alone
Just the number, please, no unit attached.

Examples from the recorded data:
>>> val("C[S+]([O-])c1ccc(-c2nc(-c3ccc(F)cc3)c(-c3ccncc3)[nH]2)cc1 (stereo not drawn)")
-0.0833
>>> val("COc1ccc(C2=N[C@@H](c3ccc(Cl)cc3)[C@@H](c3ccc(Cl)cc3)N2C(=O)N2CCNC(=O)C2)c(OC(C)C)c1")
-0.511
>>> val("CCn1c(-c2nonc2N)nc2cnc(Oc3cccc(NC(=O)c4ccc(OCCN5CCOCC5)cc4)c3)cc21")
-0.215
>>> val("O=C(Nc1ccccc1-c1cn2c(CN3CCNCC3)csc2n1)c1cnc2ccccc2n1")
-0.0409
>>> val("COc1c(C)c2c(c(O)c1C/C=C(\\C)CCC(=O)OCCN1CCOCC1)C(=O)OC2 [Mycophenolate mofetil (CellCept)]")
0.154

stdin: Give growth inhibition by drug alone (RIVA) of the following compound: COc1cc2c(N3CCN(C(=O)Nc4ccc(OC(C)C)cc4)CC3)ncnc2cc1OCCCN1CCCCC1
stdout: -0.163

stdin: Would you mind doing CCc1cc(-c2n[nH]c(C)c2-c2ccc3c(c2)OCCO3)c(O)cc1O as well?
stdout: -0.46

stdin: Would you mind doing CCC(=O)N1CCN(c2ccc(-n3c(=O)ccc4cnc5ccc(-c6cnc7ccccc7c6)cc5c43)cc2C(F)(F)F)CC1 as well?
stdout: 0.289

----------
Test system: RIVA
procedure-text: growth inhibition by drug plus 177Lu-lilotomab satetraxetan (1 - RLU/untreated control) (fraction); higher = stronger inhibition
conditions: 100 nM; time (day): 4; 177Lu-lilotomab satetraxetan 0.5 ug/ml
Could you label it Satisfied if measured growth inhibition by drug plus 177Lu-lilotomab satetraxetan is 0.5 or higher, and Not satisfied otherwise?

Here are 3 compounds together with their reported answers.
>>> discrete_label("CNC(=O)c1cc(Oc2ccc(NC(=O)Nc3ccc(Cl)c(C(F)(F)F)c3)cc2)ccn1 [Sorafenib (Nexavar)]")
"Satisfied"
>>> discrete_label("COCC[n+]1c2c(n(Cc3cnccn3)c1C)C(=O)c1ccccc1C2=O")
"Satisfied"
>>> discrete_label("CNC(=O)c1cc(Oc2ccc(NC(=O)Nc3cc(C(C)(C)C)nn3-c3ccc4ncccc4c3)c(F)c2)ccn1 [DCC-2036 (Rebastinib)]")
"Satisfied"

stdin: Hi team, for CNC(=O)c1ccccc1Sc1ccc2c(/C=C/c3ccccn3)n[nH]c2c1 [Axitinib] , is the recorded growth inhibition by drug plus 177Lu-lilotomab satetraxetan at or above 0.5?
stdout: Not satisfied

stdin: Would you mind doing Cn1cnc2c(F)c(Nc3ccc(Br)cc3Cl)c(C(=O)NOCCO)cc21 [AZD6244 (Selumetinib)] as well?
stdout: Not satisfied

stdin: Would you mind doing CN1CCN(c2cccc(Nc3nc4c(-c5ccc(S(C)(=O)=O)cc5)cccn4n3)c2)CC1 as well?
stdout: Not satisfied

stdin: Would you mind doing COc1cc2c(NC3CCN(C)CC3)nc(N3CCCN(C)CC3)nc2cc1OCCCN(C)C as well?
stdout: Not satisfied

stdin: Would you mind doing Cc1oc(S(=O)(=O)N2CCCCC2)cc1NC(=O)Nc1ccccc1 as well?
stdout: Satisfied

----------
Reported growth inhibition by drug alone values for the following compounds.
System: U-2932
procedure-text: growth inhibition by drug alone (1 - RLU/untreated control) (fraction); higher = stronger inhibition
conditions: 10 nM; time (day): 4; 177Lu-lilotomab satetraxetan 0 ug/ml
Just the number, please, no unit attached.

Examples from the recorded data:
>>> val("N#CC[C@H](C1CCCC1)n1cc(-c2ncnc3[nH]ccc23)cn1")
0.0281
>>> val("NC(=O)c1ccc2nc(-c3ccc(Oc4ccc(Cl)cc4)cc3)[nH]c2c1")
0.0235
>>> val("Cc1ccnc(NS(=O)(=O)c2ccc(NC(=O)Nc3ccc(S(=O)(=O)Nc4nccc(C)n4)cc3)cc2)n1")
0.112
>>> val("CC(=O)Nc1cccc(-n2c(=O)n(C3CC3)c(=O)c3c(Nc4ccc(I)cc4F)n(C)c(=O)c(C)c32)c1")
0.0992
>>> val("COc1cc2nccc(Oc3ccc(NC(=O)Nc4cc(C)on4)c(Cl)c3)c2cc1OC [Tivozanib (AV-951)]")
0.0745

stdin: Can you look up the measured growth inhibition by drug alone of CC[C@@H]1C(=O)N(C)c2cnc(Nc3ccc(C(=O)NC4CCN(C)CC4)cc3OC)nc2N1C1CCCC1 for me?
stdout: 0.844

----------
System: U-2932
procedure-text: growth inhibition by drug alone (1 - RLU/untreated control) (fraction); higher = stronger inhibition
conditions: 1000 nM; time (day): 3; 177Lu-lilotomab satetraxetan 0 ug/ml
Reported growth inhibition by drug alone values for the following compounds.
Just the number, please, no unit attached.

Examples from the recorded data:
>>> val("CCOc1ccc(Cc2cc([C@@H]3O[C@H](CO)[C@@H](O)[C@H](O)[C@H]3O)ccc2Cl)cc1")
0.0652
>>> val("CS(=O)(=O)CCNCc1ccc(-c2ccc3ncnc(Nc4ccc(OCc5cccc(F)c5)c(Cl)c4)c3c2)o1 [Lapatinib Ditosylate (Tykerb)]")
0.0164
>>> val("Cc1cc(O)c2c(c1)C(=O)c1cccc(O)c1C2=O")
-0.0803

Now look at this entry.
stdin: Can you look up the measured growth inhibition by drug alone of COc1c(C)c2c(c(O)c1C/C=C(\C)CCC(=O)O)C(=O)OC2 [Mycophenolic (Mycophenolate)] for me?
stdout: 0.779

----------
Tested on: U-2932
procedure-text: growth inhibition by drug alone (1 - RLU/untreated control) (fraction); higher = stronger inhibition
conditions: 10 nM; time (day): 5; 177Lu-lilotomab satetraxetan 0 ug/ml
Structures can show the parent of a compound that is named as a salt.
Reported growth inhibition by drug alone values for the following compounds.
Just the number, please, no unit attached.

Examples from the recorded data:
>>> val("O=C(Cc1ccc(-c2ccc(OCCN3CCOCC3)cc2)cn1)NCc1ccccc1")
0.0891
>>> val("C=CCn1c(=O)c2cnc(Nc3ccc(N4CCN(C)CC4)cc3)nc2n1-c1cccc(C(C)(C)O)n1")
-0.0363
>>> val("Cc1nc(-c2ccc(OCC(C)C)c(C#N)c2)sc1C(=O)O")
0.0252

Now look at this entry.
stdin: Can you look up the measured growth inhibition by drug alone of COC1=CC(c2cc3ccccc3[nH]2)=N/C1=C\c1[nH]c(C)cc1C [Obatoclax mesylate (GX15-070)] for me?
stdout: -0.0597

----------
Tested on: U-2932
procedure-text: growth inhibition by drug plus 177Lu-lilotomab satetraxetan (1 - RLU/untreated control) (fraction); higher = stronger inhibition
conditions: 1000 nM; time (day): 5; 177Lu-lilotomab satetraxetan 1 ug/ml
parameter-measured: growth inhibition by drug plus 177Lu-lilotomab satetraxetan
Just the number, please, no unit attached.

Examples from the recorded data:
>>> val("O=C(/C=C/C#Cc1cccc(NS(=O)(=O)c2ccccc2)c1)NO [Oxamflatin]")
0.958
>>> val("CCc1cc(Nc2nccc(-c3c(-c4ccc(OC)c(C(=O)Nc5c(F)cccc5F)c4)nc4ccccn34)n2)c(OC)cc1N1CCC(N2CCN(S(C)(=O)=O)CC2)CC1")
0.00224
>>> val("CC1(CN2CCC(n3c(=O)[nH]c4ccccc43)CC2)OCc2ccccc2-n2cccc21 (centres undefined)")
0.0675
>>> val("Nc1cccc2c1CN(C1CCC(=O)NC1=O)C2=O (centres undefined) [Lenalidomide]")
0.303
>>> val("COc1c(C)c2c(c(O)c1C/C=C(\\C)CCC(=O)OCCN1CCOCC1)C(=O)OC2 [Mycophenolate mofetil (CellCept)]")
0.89

stdin: Can you look up the measured growth inhibition by drug plus 177Lu-lilotomab satetraxetan of Cc1ccc(NC(=O)c2ccc(CN3CCN(C)CC3)cc2)cc1Nc1nccc(-c2cccnc2)n1 [Imatinib (Gleevec)] for me?
stdout: 0.073

stdin: Would you mind doing C=CC(=O)N1CCC[C@@H](n2nc(-c3ccc(Oc4ccccc4)cc3)c3c(N)ncnc32)C1 as well?
stdout: 0.791

stdin: Would you mind doing NC(=O)Nc1cc(-c2cccc(F)c2)sc1C(=O)N[C@H]1CCCNC1 as well?
stdout: 0.974

stdin: Would you mind doing C[C@@H](Oc1cc(-c2cnn(C3CCNCC3)c2)cnc1N)c1c(Cl)ccc(F)c1Cl as well?
stdout: 0.397

----------
Test system: RIVA
procedure-text: growth inhibition by drug alone (1 - RLU/untreated control) (fraction); higher = stronger inhibition
conditions: 10 nM; time (day): 4; 177Lu-lilotomab satetraxetan 0 ug/ml
Could you label it satisfied if measured growth inhibition by drug alone is -0.008 or higher, and not satisfied otherwise?

Here are 3 molecules together with their reported answers.
>>> discrete_label("NC(=O)Nc1sc(-c2ccc(F)cc2)cc1C(N)=O")
"not satisfied"
>>> discrete_label("O=C(O)c1ccc2c(c1)nc(Nc1cccc(Cl)c1)c1ccncc12 [cx-4945 (Silmitasertib)]")
"not satisfied"
>>> discrete_label("COc1ccc(CCN2CCN(CCCc3ccccc3)CC2)cc1OC")
"not satisfied"

stdin: Hi team, for Cc1cnc(NC(=O)Nc2cc(Br)c(C)cc2OC[C@@H]2CNCCO2)cn1 , is the recorded growth inhibition by drug alone at or above -0.008?
stdout: not satisfied

stdin: Would you mind doing Nc1nccc(-c2ccc3noc(-c4ccc(Cl)cc4)c3c2)n1 [PIM-1 Inhibitor 2] as well?
stdout: satisfied

stdin: Would you mind doing CC1(C)CNc2cc(NC(=O)c3cccnc3NCc3ccncc3)ccc21 [Motesanib Diphosphate] as well?
stdout: not satisfied

stdin: Would you mind doing C=C1/C(=C\C=C2/CCC[C@]3(C)[C@@H]([C@H](C)/C=C/[C@H](C)C(C)C)CC[C@@H]23)C[C@@H](O)C[C@@H]1O [Doxercalciferol (Hectorol)] as well?
stdout: satisfied

stdin: Would you mind doing CC(C)n1nc(-c2ccc3oc(N)nc3c2)c2c(N)ncnc21 as well?
stdout: satisfied
